Test system: MOLT-4 (Leukemia)
procedureDetails: five dose-response growth inhibition/cytotoxicity, MOLT-4
Type: cell-based, human
conditionParameters: read-out: LC50 (the source's name)
measurementLabel: CC50

- compoundSmiles: "COc1ccc2c(c1)c(C=C1C(=O)NC(=S)NC1=O)cn2C(=O)c1cccc2ccccc12"
  testSystem: "MOLT-4 (Leukemia)"
  measurementLabel: "CC50"
  result: "> 100 µM"

Moving on to the next molecule.
Lookup: Requested field: CC50. Item: O=C1NC(=S)NC(=O)C1=Cc1cn(C(=O)c2cccc3ccccc23)c2ccccc12
Found: 79 µM

====

System: SF-539 (CNS Cancer)
procedureDetails: five dose-response growth inhibition/cytotoxicity, SF-539
Type: cell-based, human
measurementLabel: GI50 (µM)
Answer in µM, number only, no unit symbol.

- compoundSmiles: "O=C1NC(=S)NC(=O)C1=Cc1cn(C(=O)c2cccc3ccccc23)c2ccccc12"
  GI50 / µM: 3.68
- compoundSmiles: "COc1ccc2c(c1)c(C=C1C(=O)NC(=S)NC1=O)cn2C(=O)c1cccc2ccccc12"
  GI50 / µM: 2.3
- compoundSmiles: "COc1ccc2c(c1)c(C=C1C(=O)NC(=S)NC1=O)cn2C(=O)c1ccccc1Br"
  GI50 / µM: 3

Lookup: Requested field: GI50. Item: COc1ccc(C(=O)n2cc(C=C3C(=O)NC(=S)NC3=O)c3cc(OC)ccc32)cc1
Found: 2.56

====

System: NCI/ADR-RES (Ovarian Cancer)
procedureDetails: five dose-response growth inhibition/cytotoxicity, NCI/ADR-RES
Format: cell-based, human
measurementLabel: GI50
Please state the number and follow it with the unit.

Worked examples follow.
- molecule: "COc1ccc2c(c1)c(C=C1C(=O)NC(=S)NC1=O)cn2C(=O)c1ccccc1Br [Compound 3s]"
  result: "3.23 µM"
- molecule: "O=C1NC(=S)NC(=O)C1=Cc1cn(C(=O)c2cccc3ccccc23)c2ccccc12 [Compound 3t]"
  result: "2.59 µM"
- molecule: "COc1ccc(C(=O)n2cc(C=C3C(=O)NC(=S)NC3=O)c3cc(OC)ccc32)cc1 [Compound 3k]"
  result: "2.91 µM"

Lookup: Requested field: GI50. Item: COc1ccc2c(c1)c(C=C1C(=O)NC(=S)NC1=O)cn2C(=O)c1cccc2ccccc12 [Compound 3w]
Found: 3.14 µM

====

Tested on: MDA-MB-435 (Melanoma)
procedureDetails: five dose-response growth inhibition/cytotoxicity, MDA-MB-435
Format: cell-based, human
conditionParameters: MDA-MB-435
measurementLabel: GI50 (µM)
Answer in µM, number only, no unit symbol.

Worked examples follow.
- compound: "COc1ccc2c(c1)c(C=C1C(=O)NC(=S)NC1=O)cn2C(=O)c1ccccc1Br [Compound 3s]"
  GI50 (µM): 1.77
- compound: "O=C1NC(=S)NC(=O)C1=Cc1cn(C(=O)c2cccc3ccccc23)c2ccccc12 [Compound 3t]"
  GI50 (µM): 1.91

Lookup: Form entry - test system: MDA-MB-435 (Melanoma); read-out: GI50; compound: COc1ccc(C(=O)n2cc(C=C3C(=O)NC(=S)NC3=O)c3cc(OC)ccc32)cc1 [Compound 3k]
Found: 0.85

Lookup: Form entry - test system: MDA-MB-435 (Melanoma); read-out: GI50; compound: COc1ccc2c(c1)c(C=C1C(=O)NC(=S)NC1=O)cn2C(=O)c1cccc2ccccc12 [Compound 3w]
Found: 2.01

====

System: OVCAR-3 (Ovarian Cancer)
procedureDetails: five dose-response growth inhibition/cytotoxicity, OVCAR-3
Assay type: cell-based, human
conditionParameters: read-out: LC50 (the source's name)
Entries and their CC50
Answer in µM, number only, no unit symbol.

Lookup: Requested field: CC50. Item: COc1ccc2c(c1)c(C=C1C(=O)NC(=S)NC1=O)cn2C(=O)c1ccccc1Br [Compound 3s]
Found: 33.1

Lookup: Requested field: CC50. Item: O=C1NC(=S)NC(=O)C1=Cc1cn(C(=O)c2cccc3ccccc23)c2ccccc12 [Compound 3t]
Found: 46.2

Lookup: Requested field: CC50. Item: COc1ccc2c(c1)c(C=C1C(=O)NC(=S)NC1=O)cn2C(=O)c1cccc2ccccc12 [Compound 3w]
Found: 20.9

====

Record type: GI50 measurement. Applies to: HCT-116 (Colon Cancer)
Answer in µM, number only, no unit symbol.

Worked examples follow.
- compoundSmiles: "COc1ccc(C(=O)n2cc(C=C3C(=O)NC(=S)NC3=O)c3cc(OC)ccc32)cc1"
  GI50 / µM: 1.95
- compoundSmiles: "COc1ccc2c(c1)c(C=C1C(=O)NC(=S)NC1=O)cn2C(=O)c1ccccc1Br"
  GI50 / µM: 3.76
- compoundSmiles: "O=C1NC(=S)NC(=O)C1=Cc1cn(C(=O)c2cccc3ccccc23)c2ccccc12"
  GI50 / µM: 2.9

Moving on to the next compound.
Lookup: Form entry - test system: HCT-116 (Colon Cancer); read-out: GI50; compound: COc1ccc2c(c1)c(C=C1C(=O)NC(=S)NC1=O)cn2C(=O)c1cccc2ccccc12
Found: 3.35

====

Entries and their CC50
Test system: HL-60(TB) (Leukemia)
conditionParameters: read-out: LC50

Worked examples follow.
- compound: "COc1ccc2c(c1)c(C=C1C(=O)NC(=S)NC1=O)cn2C(=O)c1ccccc1Br [Compound 3s]"
  CC50: "> 100 µM"
- compound: "O=C1NC(=S)NC(=O)C1=Cc1cn(C(=O)c2cccc3ccccc23)c2ccccc12 [Compound 3t]"
  CC50: "> 100 µM"
- compound: "COc1ccc(C(=O)n2cc(C=C3C(=O)NC(=S)NC3=O)c3cc(OC)ccc32)cc1 [Compound 3k]"
  CC50: "> 50 µM"

Moving on to the next compound.
Lookup: Requested field: CC50. Item: COc1ccc2c(c1)c(C=C1C(=O)NC(=S)NC1=O)cn2C(=O)c1cccc2ccccc12 [Compound 3w]
Found: > 100 µM

====

System: CCRF-CEM (Leukemia)
measurementLabel: GI50 (µM)
Answer in µM, number only, no unit symbol.

Worked examples follow.
- compound: "COc1ccc2c(c1)c(C=C1C(=O)NC(=S)NC1=O)cn2C(=O)c1cccc2ccccc12 [Compound 3w]"
  measurementLabel: "GI50"
  result: 3.31
- compound: "COc1ccc2c(c1)c(C=C1C(=O)NC(=S)NC1=O)cn2C(=O)c1ccccc1Br [Compound 3s]"
  measurementLabel: "GI50"
  result: 4
- compound: "O=C1NC(=S)NC(=O)C1=Cc1cn(C(=O)c2cccc3ccccc23)c2ccccc12 [Compound 3t]"
  measurementLabel: "GI50"
  result: 3.35

Moving on to the next compound.
Lookup: Requested field: GI50. Item: COc1ccc(C(=O)n2cc(C=C3C(=O)NC(=S)NC3=O)c3cc(OC)ccc32)cc1 [Compound 3k]
Found: 2.23

====

Tested on: SF-539 (CNS Cancer)
procedureDetails: five dose-response growth inhibition/cytotoxicity, SF-539
Format: cell-based, human
conditionParameters: read-out: LC50 (the source's name)
measurementLabel: CC50 (µM)
Answer in µM, number only, no unit symbol.

- compoundSmiles: "COc1ccc2c(c1)c(C=C1C(=O)NC(=S)NC1=O)cn2C(=O)c1ccccc1Br"
  unitAbbrev: "µM"
  result: 57.8

Moving on to the next compound.
Lookup: Requested field: CC50. Item: O=C1NC(=S)NC(=O)C1=Cc1cn(C(=O)c2cccc3ccccc23)c2ccccc12
Found: 58.6

====

Tested on: CCRF-CEM (Leukemia)
procedureDetails: five dose-response growth inhibition/cytotoxicity, CCRF-CEM
Assay type: cell-based, human
conditionParameters: read-out: LC50 (the source's name)
measurementLabel: CC50

- compoundSmiles: "O=C1NC(=S)NC(=O)C1=Cc1cn(C(=O)c2cccc3ccccc23)c2ccccc12"
  measurementLabel: "CC50"
  result: "> 100 µM"
- compoundSmiles: "COc1ccc2c(c1)c(C=C1C(=O)NC(=S)NC1=O)cn2C(=O)c1ccccc1Br"
  measurementLabel: "CC50"
  result: "> 100 µM"
- compoundSmiles: "COc1ccc2c(c1)c(C=C1C(=O)NC(=S)NC1=O)cn2C(=O)c1cccc2ccccc12"
  measurementLabel: "CC50"
  result: "> 100 µM"

Moving on to the next compound.
Lookup: Requested field: CC50. Item: COc1ccc(C(=O)n2cc(C=C3C(=O)NC(=S)NC3=O)c3cc(OC)ccc32)cc1
Found: > 50 µM

====

System: M14 (Melanoma)
procedureDetails: five dose-response growth inhibition/cytotoxicity, M14
Type: cell-based, human
conditionParameters: read-out: LC50 (the source's name)
Entries and their CC50

- compoundSmiles: "COc1ccc2c(c1)c(C=C1C(=O)NC(=S)NC1=O)cn2C(=O)c1cccc2ccccc12"
  CC50: "> 100 µM"
- compoundSmiles: "O=C1NC(=S)NC(=O)C1=Cc1cn(C(=O)c2cccc3ccccc23)c2ccccc12"
  CC50: "> 100 µM"
- compoundSmiles: "COc1ccc2c(c1)c(C=C1C(=O)NC(=S)NC1=O)cn2C(=O)c1ccccc1Br"
  CC50: "> 100 µM"

Lookup: Form entry - test system: M14 (Melanoma); read-out: CC50; compound: COc1ccc(C(=O)n2cc(C=C3C(=O)NC(=S)NC3=O)c3cc(OC)ccc32)cc1
Found: > 50 µM

Just for reference, patent US9597316B2 is where these values come from.
